B1: TPR 5TU (parent)
chain: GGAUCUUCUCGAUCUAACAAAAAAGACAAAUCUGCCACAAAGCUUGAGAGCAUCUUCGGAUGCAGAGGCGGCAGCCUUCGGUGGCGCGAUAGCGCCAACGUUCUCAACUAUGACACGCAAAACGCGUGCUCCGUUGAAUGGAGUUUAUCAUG

Variants of: B1
Test summary: polymerase ribozyme fitness, log enrichment relative to wild type (log ratio); higher = more active; in vitro selection for triplet polymerase activity
Fewer inactive variants are shown than the library holds.
Endpoint name: polymerase ribozyme fitness (log ratio)

# polymerase ribozyme fitness (log ratio) of G11A U15G G46A A47G A60G G92C C96A = ≤ -4.2

# polymerase ribozyme fitness (log ratio) of U45A C51U G74A C95A U135G = ≤ -4.2

# polymerase ribozyme fitness (log ratio) of A3U A16C A60G C87A U102G C108G U127A U145G = ≤ -4.2

# polymerase ribozyme fitness (log ratio) of U7C A24U G84U C87G A107C G112U G133U = ≤ -4.2

# polymerase ribozyme fitness (log ratio) of G42A A142C U148G = ≤ -4.2

# polymerase ribozyme fitness (log ratio) of U15C G80C C93G C116G = -4.05

# polymerase ribozyme fitness (log ratio) of A16U C125A = -2.06

# polymerase ribozyme fitness (log ratio) of A16U C38U A91U C103A = ≤ -4.2

# polymerase ribozyme fitness (log ratio) of A16G U82A U145G = -1.4

# polymerase ribozyme fitness (log ratio) of C51U A89G G141U = -0.598

# polymerase ribozyme fitness (log ratio) of A26C U55A C75A G80C G94A C105A = ≤ -4.2

Where do these numbers come from? They come from the RNAGym collection of RNA variant scans (doi:10.1073/pnas.2313332121).
